- Test system: solubilized endothelin converting enzyme (P3 from rat lung)
- TEST DETAILS: Endothelin converting enzyme activity of solubilized enzyme with protease inhibitors
- Format: biochemical
- EXPERIMENTAL SETUP: at 40 mM; solubilized ECE (P3 from rat lung)
- Procedure: Rat lung plasma membranes were prepared and assayed for endothelin converting enzyme activity as previously described (Biochem. Biophys. Res. Commun. 171 1291 (1990)). The enzyme has an apparent molecular mass of 90 KD as estimated by SDS-PAGE or gel filtration and appears to be a single peptide protein. […] The enzyme may exist as isozymes with pIs at 6.2 and 6.3. […] The endothelin converting enzyme activity in active Mono Q fractions was inhibited by pepstatin A with an IC50 of 5 nM. […]
RESULT TYPE: inhibition of endothelin converting enzyme activity

{"COMPOUND": "CC(C)C[C@H](NC(=O)[C@@H](O)[C@H](N)Cc1ccccc1)C(=O)O", "OBSERVED MEASUREMENT": "not inhibited"}
{"COMPOUND": "CC(C)C[C@H](NC(=O)[C@H]1O[C@@H]1C(=O)O)C(=O)NCCCCN=C(N)N", "OBSERVED MEASUREMENT": "not inhibited"}
{"COMPOUND": "O=S(=O)(F)Cc1ccccc1", "OBSERVED MEASUREMENT": "not inhibited"}
{"COMPOUND": "O=C(O)CNC(=O)C(CS)Cc1ccccc1 (stereo not drawn)", "OBSERVED MEASUREMENT": "not inhibited"}
{"COMPOUND": "Cc1ccc(S(=O)(=O)NC(CCCCN)C(=O)CCl)cc1 (stereo not drawn)", "OBSERVED MEASUREMENT": "not inhibited"}
{"COMPOUND": "CC(C)C[C@H](NP(=O)(O)O[C@@H]1O[C@@H](C)[C@H](O)[C@@H](O)[C@H]1O)C(=O)N[C@@H](Cc1c[nH]c2ccccc12)C(=O)O", "OBSERVED MEASUREMENT": "not inhibited"}

All figures here come from patent US5338726A.
